Every entry's value here was drawn from paper doi:10.1101/2020.04.16.045419.

biological target: SARS-CoV-2 RBD construct consisting of residues Pro330-Gly526 fused to Venus YFP (RBD-vYFP) (SARS-CoV-2, UniProt P0DTC2)
QUANTITY_MEASURED: binding result

Sb#20 (VHH) VHH: QVQLVESGGGLVQAGGSLRLSCAASGFPVEQREMEWYRQAPGKEREWVAAIDSNGNYTFYADSVKGRFTISRDNAKNTVYLQMNSLKPEDTAVYYCYVYVGKSYIGQGTQVTVS : binds
Sb#50 (VHH) VHH: QVQLVESGGGSVQAGGSLRLSCAASGYIDKIVYLGWFRQAPGKEREGVAALYTLSGHTYYADSVKGRFTVSLDNAKNTVYLQMNSLKPEDTALYYCAAATEGHAHALYRLHYYWGQGTQVTVS : binds
